- procedureDetails: PAMPA permeability
- Type: in vitro ADME
- conditionDetails: PAMPA
Task for the reader: assign each of the following compounds its reported PAMPA Permeability (×10^6 cm/s).

[
  {
    "smilesNotation": "NCc1cccc(-c2ccc3ncc4ccc(=O)n(-c5ccc6c(c5)CNC6=O)c4c3c2)c1",
    "reportedMetric": "PAMPA Permeability (×10^6 cm/s)",
    "dataValue": "<1 ×10^6 cm/s"
  }
]

For every record below, what is its PAMPA Permeability (×10^6 cm/s)?
1. CCS(=O)(=O)c1ccc(-n2c(=O)ccc3cnc4ccc(-c5ccc(Cl)cc5)cc4c32)cc1
2. NC1(c2ccc(-c3ccc4ncc5ccc(=O)n(-c6ccc7c(c6)CNC7=O)c5c4c3)cc2)CCC1
3. CN(C)Cc1ccc(-c2ccc3ncc4ccc(=O)n(-c5ccc(S(C)(=O)=O)cc5)c4c3c2)cc1
4. CN(C)Cc1cccc(-c2ccc3ncc4ccc(=O)n(-c5ccc(S(C)(=O)=O)cc5)c4c3c2)c1
5. Nc1ccc(-c2ccc3ncc4ccc(=O)n(-c5ccc6c(c5)CCNC6=O)c4c3c2)cn1
6. CS(=O)(=O)c1cccc(-n2c(=O)ccc3cnc4ccc(-c5ccc(N)nc5)cc4c32)c1

Output line:
["<1.0 ×10^6 cm/s", "2.9 ×10^6 cm/s", "677.9 ×10^6 cm/s", "1646.44 ×10^6 cm/s", "<1.10 ×10^6 cm/s", "50.85 ×10^6 cm/s"]

Hey, just so you know, these numbers are from patent US11753408B2.
